system: HOP-62 NSCLC; test: NCI tumour cell line growth inhibition, 48 h; in the data active means GI50 below about 0.43 µM; inactive means the rest
# output must be one of active, inactive

Examples from the recorded data:
{"compound": "COC1(OC)C[C@H](C)[C@@]23O[C@]24c2cc(O)c5c(c2N[C@H]3C#C/C=C\\C#C[C@]14O)C(=O)c1ccccc1C5=O", "target_system": "HOP-62 NSCLC", "class_assignment": "active"}
{"compound": "N#Cc1c(N)nc(N2CCOCC2)c(C#N)c1-c1cccc(O)c1", "target_system": "HOP-62 NSCLC", "class_assignment": "inactive"}
{"compound": "COc1cc(C(=O)O)ccc1NC(=O)[C@@H]1N[C@@H](CC(C)(C)C)[C@](C#N)(c2ccc(Cl)cc2F)[C@H]1c1cccc(Cl)c1F", "target_system": "HOP-62 NSCLC", "class_assignment": "inactive"}
{"compound": "C=C1C(=O)O[C@H]2[C@H]1CC/C(Cn1cc(Cn3ccc4cc(Cl)ccc43)nn1)=C\\CC[C@@]1(C)O[C@@H]21", "target_system": "HOP-62 NSCLC", "class_assignment": "inactive"}
{"compound": "N#C/C(=C\\c1ccc(Cl)cc1)n1nnc2cc(F)c(F)cc21", "target_system": "HOP-62 NSCLC", "class_assignment": "inactive"}
{"compound": "COc1ccc(C(=O)c2ccc(OC)cc2OC)cc1", "target_system": "HOP-62 NSCLC", "class_assignment": "inactive"}
{"compound": "O=C(Nc1cccc(-c2nc3ccccc3[nH]2)c1)c1cccc(NC(=O)c2ccco2)c1", "target_system": "HOP-62 NSCLC", "class_assignment": "inactive"}
{"compound": "C=C1C(=O)O[C@H]2[C@H]1CC/C(COC(=O)N[C@@H](Cc1c[nH]c3ccccc13)C(=O)OC)=C\\CC[C@@]1(C)O[C@@H]21", "target_system": "HOP-62 NSCLC", "class_assignment": "inactive"}
{"compound": "CC(=O)O[C@H]1C(=O)[C@@]2(C)[C@H]([C@H](OC(=O)c3ccccc3)[C@]3(O)C[C@H](OC(=O)[C@H](OC(=O)CCC(=O)OC4CCC(S/N=C(N)/N=C(\\N)N(C)C)CC4)[C@@H](NC(=O)c4ccccc4)c4ccccc4)C(C)=C1C3(C)C)[C@]1(OC(C)=O)CO[C@@H]1C[C@@H]2O (stereo not given in full)", "target_system": "HOP-62 NSCLC", "class_assignment": "active"}
{"compound": "O=[N+]([O-])c1ccccc1/C=C/C=C1c2ccccc2-c2ccccc21", "target_system": "HOP-62 NSCLC", "class_assignment": "inactive"}

Hi team, can someone confirm the assay call for `CO[C@H]1C[C@@H]2CC[C@@H](C)[C@@](O)(O2)C(=O)C(=O)N2CCCC[C@H]2C(=O)O[C@H]([C@H](C)C[C@@H]2CC[C@@H](OC(=O)C(C)(CO)CO)[C@H](OC)C2)CC(=O)[C@H](C)/C=C(\C)[C@@H](O)[C@@H](OC)C(=O)[C@H](C)C[C@H](C)/C=C/C=C/C=C/1C` ?
active

Hi team, can someone confirm the assay call for `Cn1c(Cc2ccccc2)nc2cc3ccccc3cc21` ?
inactive
